Assay Name: NCI Yeast Anticancer Drug Screen. Data for the rad50 strain (AID 155);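 further: 0% = growth of vehicle-only cultures of the same strain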
Assay Conditions: S. cerevisiae rad50 strain growth inhibition; at 5.0 µM (retest, dose inferred, filed as 0.5); hits give high values
This is part of a sample that, as a whole, favours compounds with a hit. Of some 79,000 tested, about 15% had one in any assay. Activity calls are given as the source filed them. No stated cut-off is given here; in the data, active means growth inhibition above about 70%; inactive means the rest.
Quick list: growth inhibition per entry.
Quantity Measured: growth inhibition

Molecule: S=c1sc2ccccc2n1C=Nc1ccccc1
Value Observed: -2% (inactive)
--
Molecule: CCOC(=O)c1ccc(N(CCC(O)CN=[N+]=[N-])S(=O)(=O)c2ccc(C)cc2)cc1 (stereo unspecified)
Value Observed: 9% (inactive)
--
Molecule: Oc1ccccc1C1C=C(c2ccccc2)NC(N2CCCCC2)=C1c1nc2ccccc2[nH]1 (stereo unspecified)
Value Observed: -9% (inactive)
--
Molecule: CCC(C)CNCCCCCNc1cc(OC)cc2cccnc12 (stereo unspecified)
Value Observed: 37% (inactive)
--
Molecule: O=C(O)c1ccc(C(=O)c2ccccc2C(=O)O)cc1
Value Observed: -3% (inactive)
--
Molecule: CC(C)c1cc2c(cc1O)C[C@@]1(O)CCCC(C)(C)C1CC2 (stereo partly specified)
Value Observed: 8% (inactive)
--
Molecule: O=C1c2ccccc2-c2cc3ccccc3nc21
Value Observed: 28% (inactive)
--
Molecule: CN(C)N=Nc1c(-c2cccs2)n[nH]c1C(F)(F)F
Value Observed: 98% (active)
--
Molecule: COc1ccc(CN2CCCN(Cc3ccc(OC)cc3OC)C2c2cc(Cl)cc(Cl)c2O)c(OC)c1
Value Observed: 10% (inactive)
--
Molecule: CCN(CC)CCNc1cc(C)nc2c1ccc1c2ccc2c(NCCN(CC)CC)cc(C)nc21
Value Observed: -3% (inactive)
--
Molecule: CC(C(=O)O)C(N)C(=O)O (stereo unspecified)
Value Observed: -1% (inactive)

----------
Assay Name: NCI Yeast Anticancer Drug Screen. Data for the bub3 strain (AID 167)
Assay Conditions: S. cerevisiae bub3 mutant strain, at 50.0 µM (retest, dose inferred, filed as 5.0), hits give high values
About 79,000 compounds went through this panel and 15% of them were active in at least one assay; those are over-represented in the sample as a whole.
Quantity Measured: growth inhibition (%)

Compound: Clc1nnc(Cl)s1
Quantity Measured: growth inhibition
Unit Of Measurement: %
Value Observed: 72
//
Compound: O=C(NC1CCN(Cc2ccccc2)CC1)c1ccc(I)cc1
Quantity Measured: growth inhibition
Unit Of Measurement: %
Value Observed: 49
//
Compound: c1ccc2sc(SSN3CCOCC3)nc2c1
Quantity Measured: growth inhibition
Unit Of Measurement: %
Value Observed: 98
//
Compound: CCCCCC/C=C1\CCC(CN2CCOCC2)C1=O (configuration not stated)
Quantity Measured: growth inhibition
Unit Of Measurement: %
Value Observed: 98
//
Compound: O=C1CC(c2ccccc2)NN1 (configuration not stated)
Quantity Measured: growth inhibition
Unit Of Measurement: %
Value Observed: 87
//
Compound: NS(=O)(=O)c1ccc(NC(=O)Cc2nc3ccccc3s2)cc1
Quantity Measured: growth inhibition
Unit Of Measurement: %
Value Observed: 99
//
Compound: C/C(CCn1[nH]c(=O)ccc1=O)=N\Nc1ccc([N+](=O)[O-])cc1[N+](=O)[O-]
Quantity Measured: growth inhibition
Unit Of Measurement: %
Value Observed: 98
//
Compound: O=c1c2c3c(sc2nc2n1N=C(c1ccc(Br)cc1)CS2)CCCC3
Quantity Measured: growth inhibition
Unit Of Measurement: %
Value Observed: -10
//
Compound: CN(C)C(=S)/N=c1\ss/c(=N\C(=S)N(C)C)n1-c1ccc(Cl)cc1
Quantity Measured: growth inhibition
Unit Of Measurement: %
Value Observed: -2
//
Compound: CC1NS(=O)(=O)N(C)C1=O (configuration not stated)
Quantity Measured: growth inhibition
Unit Of Measurement: %
Value Observed: 16
//
Compound: O=C(CCl)Nc1cc(Cl)ccc1Cl
Quantity Measured: growth inhibition
Unit Of Measurement: %
Value Observed: 83
//
Compound: CCc1cccc(C)c1NC(=O)C(=O)CC(=O)c1ccccc1Cl
Quantity Measured: growth inhibition
Unit Of Measurement: %
Value Observed: -2
